# System: KRAS PDC multicell spheroid viability
# Assay Explanation: Anticancer human tumor 521955-158-R6-J3-PDC patient-derived pancreatic carcinoma cell line growth inhibition [KRAS2]
# Settings: second compound 0.316 µM; first compound 0.316 µM; stronger effect = lower value
Overview of reported viability, T/C across a group of compounds:
Reply numerically in %, unit not repeated.

Compound	Readout	Measured Value
COC(=O)c1ccc2c(C(=Nc3ccc(N(C)C(=O)CN4CCN(C)CC4)cc3)c3ccccc3)c(O)[nH]c2c1 + CNCc1ccccc1-c1csc(C(C)Nc2nc(C)nc3cc(OC)c(OC)cc23)c1	viability, T/C	107

Entry CC1(C)CCC(CN2CCN(c3ccc(C(=O)NS(=O)(=O)c4ccc(NCC5CCOCC5)c([N+](=O)[O-])c4)c(Oc4cnc5[nH]ccc5c4)c3)CC2)=C(c2ccc(Cl)cc2)C1 + CNCc1ccccc1-c1csc(C(C)Nc2nc(C)nc3cc(OC)c(OC)cc23)c1 needs its viability, T/C filled in; supply it.
90.2

Identify viability, T/C associated with the compound CC(C)NCC(C(=O)N1CCN(c2ncnc3c2C(C)CC3O)CC1)c1ccc(Cl)cc1 (stereo not given) + CNCc1ccccc1-c1csc(C(C)Nc2nc(C)nc3cc(OC)c(OC)cc23)c1
64.8

Output viability, T/C of CC1COCCN1c1cc(-c2ccnn2C)c2ccnc(-c3ccn[nH]3)c2n1 (stereo not given) + C=CC(=O)N1CCN(c2nc(OCC3CCCN3C)nc3c2CCN(c2cccc4cccc(C)c24)C3)CC1CC#N
74.7

Tell me measured viability, T/C for CC(=O)OC12COC1CC(O)C1(C)C(=O)C(O)C3=C(C)C(OC(=O)C(O)C(NC(=O)OC(C)(C)C)c4ccccc4)CC(O)(C(OC(=O)c4ccccc4)C21)C3(C)C (stereo not given) + CNCc1ccccc1-c1csc(C(C)Nc2nc(C)nc3cc(OC)c(OC)cc23)c1 please.
60.6

---

Below: a set of entries, each annotated with reported viability, T/C.
# Tested on: KRAS PDC multicell spheroid viability
# Assay Explanation: Anticancer human tumor 521955-158-R6-J3-PDC cell line growth inhibition [KRAS2];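 note: drug exposure lasted seven days; 100% = DMSO vehicle wells and lower means fewer viable cells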
# Settings: second compound 0.316 µM; first compound 0.1 µM; stronger effect = lower value
Just the number in %, nothing appended.

Compound	Unit Spec	Measured Value
O=C(c1cc(Cc2n[nH]c(=O)c3ccccc23)ccc1F)N1CCN(C(=O)C2CC2)CC1 + CC1OCC2(CCN(c3cnc(Sc4ccnc(N)c4Cl)c(N)n3)CC2)C1N	%	85.8
CC1COCCN1c1cc(-c2ccnn2C)c2ccnc(-c3ccn[nH]3)c2n1 (stereo unspecified) + COc1cc2nc(C)nc(NC(C)c3cc(N)cc(C(F)(F)F)c3)c2cc1OC1CCOC1	%	79.1
O=C(c1cc(Cc2n[nH]c(=O)c3ccccc23)ccc1F)N1CCN(C(=O)C2CC2)CC1 + COc1cc2nc(C)nc(NC(C)c3cc(N)cc(C(F)(F)F)c3)c2cc1OC1CCOC1	%	88.8

Specify measured viability, T/C for O=C(c1cc(Cc2n[nH]c(=O)c3ccccc23)ccc1F)N1CCN(C(=O)C2CC2)CC1 + CNCc1ccccc1-c1csc(C(C)Nc2nc(C)nc3cc(OC)c(OC)cc23)c1 .
65.3

Determine its reported viability, T/C: O=C(c1cc(Cc2n[nH]c(=O)c3ccccc23)ccc1F)N1CCN(C(=O)C2CC2)CC1 + C=CC(=O)N1CCN(c2nc(OCC3CCCN3C)nc3c2CCN(c2cccc4cccc(C)c24)C3)CC1CC#N
107

Report viability, T/C for CC(C)n1nc(-c2ccc3oc(N)nc3c2)c2c(N)ncnc21 + COc1cc2nc(C)nc(NC(C)c3cc(N)cc(C(F)(F)F)c3)c2cc1OC1CCOC1
47.3
